Exercise: for every item that follows, state its recorded GI50.
Tested on: HL-60(TB) leukemia
assayDetails: NCI tumour cell line growth inhibition, 48 h

Entry under review: CCSc1nc(N)c(C#N)c(-c2ccco2)c1C#N . Reported GI50?
39.8 µM

Let us now turn to Brc1cccc(-c2cc(-c3ccc4nccnc4c3)[nH]n2)c1
0.519 µM

Let us now turn to COc1ccc2c(c1)C(=O)c1c-2c(N2CCNCC2)nc2ccccc12
1.8 µM

Let us now turn to Cc1ccc(OCC2OC(n3cnc4c(Cl)ncnc43)CC2Oc2ccc(C)cc2)cc1 (stereo unspecified)
2.79 µM

Let us now turn to N/C(=N\c1nc2ccccc2s1)NC(=NC1CCCCC1)NC1CCCCC1
1.83 µM

Let us now turn to O=c1c(O)cccn1CCCN(CCCn1cccc(O)c1=O)CCn1cccc(O)c1=O
5.54 µM

Let us now turn to COc1ccc(Oc2ccccc2NC(=O)CNC(=O)c2cccc3ccccc23)cc1
0.613 µM

Let us now turn to Nc1ncccc1-c1nc2ccc(-c3ccccc3)nc2n1-c1ccc(C2(N)CCC2)cc1
1.83 µM

Let us now turn to Nc1n[nH]c(N)c1N=Nc1ccc(O)cc1
6.44 µM

Let us now turn to COc1cc(/C=C/[N+](=O)[O-])cc(OC)c1OC
4.95 µM

Let us now turn to CC/C=C\C/C=C/C=C1/C(=O)C=C[C@@H]1C/C=C\CCCC(=O)OC
2.24 µM

* * *

Tested on: A549 NSCLC
assayDetails: NCI tumour cell line growth inhibition, 48 h
Exercise: for every item that follows, state its recorded TGI.
Give the quantity in µM, number only.

Entry under review: CC[C@H]1C=CCC[C@@]2(C[C@@H]3CC[C@@H]4[C@H](C(=O)OCCCCCCCCCCCCCCCC(=O)N(CCCN)CCCCN)[C@]5(CCC[C@@H](C)O5)NC(=[N+]34)N2)O1 . Reported TGI?
1.42

Let us now turn to O=c1c(O)cccn1CCCN(CCCn1cccc(O)c1=O)CCn1cccc(O)c1=O
75.2

Let us now turn to Nc1ccc(C(=O)NN2C(=O)C(Cl)C2c2cccc(O)c2)cc1 (stereo not given)
39.3

* * *

Exercise: for every item that follows, state its recorded TGI.
Test system: OVCAR-4 ovarian
assayDetails: NCI tumour cell line growth inhibition, 48 h
Give the quantity in µM, number only.

So what TGI did CC/C=C\C/C=C/C=C1/C(=O)C=C[C@@H]1C/C=C\CCCC(=O)OC get with OVCAR-4 ovarian?
17.3

Let us now turn to C[C@H]1c2ccccc2CN1CCCOc1cc2c(cc1OCC1CC1)C1(CCCC1)C(N)=N2
7.42

Let us now turn to N=C(N)c1ccc(-c2ccc(-c3ccc(Cl)cc3)s2)nc1
3.06

* * *

Tested on: MOLT-4 leukemia
assayDetails: NCI tumour cell line growth inhibition, 48 h
Where a SMILES comes first, the peptide text is derived from it. Bridges are numbered along the chain shown (N, C = ends). The star is where a group is joined. Cbz = O=C(OCc1ccccc1)*
Exercise: for every item that follows, state its recorded TGI.

Entry under review: C/C(=C\Cc1cc(O)ccc1O)CCc1c(C)c(O)c(O)c(C=O)c1C . Reported TGI?
> 100 µM

Let us now turn to CC(=O)[CH-]C(=O)Nc1ccccc1.CC(=O)[CH-]C(=O)Nc1ccccc1.CC[O-].CC[O-].[Ti+4]
> 100 µM

Let us now turn to O=C(CCc1nc(=S)[nH][nH]1)Nc1cccc(C(F)(F)F)c1
> 100 µM

Let us now turn to C[C@@H]1CC[C@@H](C)[C@](C)(CCc2ccoc2)C/C=C\C=C/1C(=O)O
> 50 µM

Let us now turn to CC(=O)CC(C)(C)NC(=O)[C@@]1(O)CC[C@H]2[C@@H]3CCC4=CC(=O)CC[C@@H]4[C@H]3CC[C@@]21C
> 100 µM

Let us now turn to CCN1CCCC(Nc2cc(C)nc(/N=C(/N)Nc3ccc(Cl)c(Cl)c3)n2)C1 (centres undefined)
2.42 µM

Let us now turn to COC(=O)C1CCCCNC(=O)CCC(NC(=O)OCc2ccccc2)C(=O)N1 (stereo not drawn) (Cbz-Glu-Lys-OMe; lactam 1-2; configuration not given here)
> 100 µM

Let us now turn to c1csc(-c2csc(-c3ccsc3)c2)c1
> 100 µM

Let us now turn to CN1CCc2c1nc(-c1cccnc1)c1c2N(C)CC1
> 100 µM
